# Test system: A549/ATCC NSCLC
# assay_comment: NCI-60 one-dose screen, 48 h (100 = growth as untreated, 0 = no growth, -100 = all killed)
# condition: 10 µM unless noted
About 83,000 compounds went through this panel and 20% of them were active in at least one assay; those are over-represented in the sample as a whole.
The molecules listed here are annotated with their growth.
Express the result in % but write the number alone.

# annotated cases, reported growth shown
Give the measured growth of O=P([O-])(O)OP(=O)([O-])O.[NH-][C@H]1CCCC[C@@H]1[NH-].[OH-].[OH-].[Pt+4] .
92.1

Which value of growth has been reported for C=C1C(=O)O[C@H]2[C@H]1CC/C(COC(=O)NCc1cc(OC)c(OC)c(OC)c1)=C\CC[C@@]1(C)O[C@@H]21 in the records?
88.1

Looking for the measured growth of CCc1c(C(=O)Nc2ccc3ccccc3c2)[nH]c(C)c1C(C)=O , can you help?
89.6

Entry CN1CCN(c2ccc3cc(-c4nc5ccccc5[nH]4)c(=O)oc3c2)CC1 has what growth?
90.3

What does the data say about its growth? Entry: NS(=O)(=O)c1ccc(CN2C(=O)c3cccc4cccc(c34)C2=O)cc1
92.1

More entries:
Would you kindly share the measured growth for CCC#CC[C@H]1C/C=C2/C(=O)C=C[C@@H]2C/C=C\CCCC(=O)O1 ?
0.732

Requested field: growth. Item: O=C1Nc2ccc(Br)cc2C1=N/C=c1\[nH]c(=O)/c(=C/c2ccc(Cl)cc2)s1
85.3

growth for CCCCC(N)(C(=O)O)C1CCCC1 (centres undefined) ?
94.4

Which growth value belongs to CCCCC[C@@H]1Cc2cc(O)c(C(=O)O)c3c2[C@H](C[C@@]2(CCCO2)O3)O1 ?
105

====

# Tested on: MCF7 breast
# assay_comment: NCI-60 one-dose screen, 48 h (100 = growth as untreated, 0 = no growth, -100 = all killed)
# condition: 10 µM unless noted
The panel holds about 83,000 compounds, 20% with a hit somewhere; the sample as a whole holds those more often.
Classification field: Criterion met = growth at or over 90%; Criterion not met = growth under 90%.

Worked cases, answers included:
Decide: is the reported value of growth for CN1C(=O)[C@H]2c3c1cccc3[C@@]13NC(=O)O[C@H]1[C@H](CCC3(C)C)C2(C)C equal to or greater than 90%?
Criterion met

Answer whether growth of CCC(=O)Oc1ccc2c(c1)CC[C@@H]1[C@@H]2CC[C@]2(C)C[C@H](OC(=O)CC)C[C@@H]12 is greater than or equal to 90%.
Criterion not met

---
Decide: growth of C=C1C(=O)O[C@H]2[C@H](O)[C@@H](C)CCC/C(C)=C/CC[C@@]3(C)O[C@@H]3C[C@@H]12 >= 90%?
Criterion not met

Does growth meet or surpass 90% for Cc1cc(C(=O)O)c(N)c(C)n1 ?
Criterion met

hey, is growth for this one >= 90%? O=C(CNc1ccc(Cl)cc1)Nc1ccc(-c2nc3ccccc3s2)cc1
Criterion not met

Please indicate if the recorded growth for COc1ccc(/C=C/C(=O)c2cc(OC)c(OC)c(OC)c2)cc1OCc1cn(Cc2ccc(F)cc2)nn1 meets or exceeds 90%.
Criterion not met

Does growth meet or surpass 90% for O=[N+]([O-])c1cc(S(=O)(=O)OCC2CO2)ccc1Cl (stereo not drawn) ?
Criterion not met

====

# Test system: OVCAR-3 ovarian
# assay_comment: NCI-60 one-dose screen, 48 h
# condition: 10 µM unless noted
# Experimental: Growth inhibition of the OVCAR-3 human tumor cell line is measured as a screen for anti-cancer activity. Cells are grown in 96 well plates and exposed to the test compound for 48 hours. Compounds are tested at a single concentration, which is 10^-5 M for most compounds. The reported endpoint is percent growth (GI% or GIPRCNT), where numbers from 0 - 100% represent growth inhibition, and numbers from -100% - 0 represent cell death. For example, a value of 40 represents 60% growth inhibition. […]
About 83,000 compounds went through this panel and 20% of them were active in at least one assay; those are over-represented in the sample as a whole. Activity calls are given as the source filed them. How the source made its calls: active means growth percent below 10; inactive means the rest.
Pick one and only one: active, inactive

Completed entries (count: 3):
For this compound, state the assay outcome: Cc1ccc(OCCn2c(C)nn(-c3ccc(Cl)cc3)c2=O)cc1
inactive

Each compound tested received a call. Report the one for CC(C)(C)c1cc(-c2nc3ccc(N4CCN(CCO)CC4)cc3[nH]2)cc(C(C)(C)C)c1O .
inactive

Which outcome was assigned to CSc1ccccc1C#C/C=C\C#Cc1ccccc1N1CCCCC1=O in this test?
inactive

---
Any idea what this test logged for COc1cc(NCCCN=C(N)NC(N)=NC(C)C)c2ncccc2c1 ?
active

====

# Test system: SW-620 colon
# assay_comment: NCI-60 one-dose screen, 48 h (100 = growth as untreated, 0 = no growth, -100 = all killed)
# condition: 10 µM unless noted
This is part of a sample that, as a whole, favours compounds with a hit. Of some 83,000 tested, about 20% had one in any assay. Active and inactive are the calls of the source. The calls were made as follows: active = growth percent below 10; inactive = the rest.
parameter: growth

Examples from the recorded data:
Could you share what growth was measured for CC1=C(C#N)C(C)(C)C(C#N)=C(C)N1 , tested on SW-620 colon?
102% (inactive)

Entry CCn1cc(C(=O)O)c(=O)c2cc(F)c(N3CCN(S(=O)(=O)c4ccc(Cl)cc4Cl)CC3)cc21 , system SW-620 colon: what growth was measured?
16.4% (inactive)

Reported growth for SW-620 colon, given Cc1cc2c(C(C)C)c(O)c(O)c(C=NCCCCCCC(=O)O)c2c(O)c1-c1c(C)cc2c(C(C)C)c(O)c(O)c(C=NCCCCCCC(=O)O)c2c1O ?
27.2% (inactive)

Could you now consider this next compound?
Hello, I am looking for reported growth with SW-620 colon for Cc1ccc(C(=O)c2sc3nc4c(cc3c2N)CCCC4)c(C)c1 . Could you help?
30.3% (inactive)

====

# Tested on: NCI-H522 lung
# assay_comment: NCI-60 one-dose screen, 48 h
# condition: 10 µM unless noted
The panel holds about 83,000 compounds, 20% with a hit somewhere; the sample as a whole holds those more often. Calls of active or inactive are those of the source. Rule for the calls: active = growth percent below 10; inactive = the rest.
Hi! Could you answer with just one of these? t for active, f for inactive

Example entries and their recorded answers appear below.
Dear colleague, could you share the recorded outcome for COc1cc2oc(-c3cccc(NC(=O)Nc4ccc5c(c4)OCO5)c3)cc(=O)c2c(OC)c1OC when you have a moment?
f

Kindly provide the recorded test outcome for the following compound: COc1ccc(-c2nc(-c3ccccc3)c(-c3ccccc3)n2C2CC2)cc1OC1CCCCC1
f

Then this compound:
Could you check what this test reported for O=c1[nH]c(-c2cn(-c3ccc(Cl)cc3)nn2)nc2ccccc12 ?
f

====

# Tested on: OVCAR-4 ovarian
# assay_comment: NCI-60 one-dose screen, 48 h (100 = growth as untreated, 0 = no growth, -100 = all killed)
# condition: 10 µM unless noted
Compounds without any hit were thinned out: in the full panel of roughly 83,000, 20% have a hit.
parameter: growth (%)
State the answer as a number, implicitly in %.

The following compounds have reported results that may help.
Fill in: growth of CCCCCCCCCN1C(=O)/C(=c2\sc3n(c2=O)C2C(NN=3)N(CC)C(=O)N2CC)c2ccccc21 (configuration not stated) is ___
13.2

Fill in: growth of CC(C)CCN(CCCNc1c2c(nc3ccccc13)CCCC2)CCC(C)C is ___
66.3

Now for a further compound.
Quick one: growth of c1cc(-c2ccc3c(c2)OCO3)n2nccc2n1 ?
98.1

====

# System: SN12C renal
# assay_comment: NCI-60 one-dose screen, 48 h (100 = growth as untreated, 0 = no growth, -100 = all killed)
# condition: 10 µM unless noted
About 83,000 compounds went through this panel and 20% of them were active in at least one assay; those are over-represented in the sample as a whole.
parameter: growth (%)
Answer with a number only, understood to be in %.

These solved cases illustrate the format of a correct answer.
Which value of growth has been reported for CCN(CC)CCSc1c2ccc(Cl)cc2nc2ccc(OC)cc12 in the records?
90.1

May I ask what growth has been recorded for Nc1cc2c(cc1N)-c1cc(N)c(N)cc1C2 ?
94.9

Recorded growth of CC(C)(C)c1ccc(S(=O)(=O)Oc2ccc3c4c(c(=O)oc3c2)CCCCC4)cc1 , please.
63.3

What value of growth has been reported for the following molecule? CC(C)(C)c1cc(-c2nc3ccc(N4CCN(CCO)CC4)cc3[nH]2)cc(C(C)(C)C)c1O
85.8

Using the record for C=C1C(=O)O[C@H]2[C@H]1CC/C(Cn1cc(-c3ccc(N)cc3)nn1)=C\CC[C@@]1(C)O[C@@H]21 , report its growth.
-7.63

New cases:
Name the reported growth value associated with the molecule CC/C(=C(\c1ccc(O)cc1)c1ccc(OCCN(C)CCN(C)C(=O)CCC(=O)c2c(C)[nH]c(/C=C3\N=C(c4ccc[nH]4)C=C3OC)c2C)cc1)c1ccccc1
91.8

Consider the molecule CCCCCCCN(CCCCCCC)C(=N)c1ccc(OC)c2ccccc12 and give its measured growth.
-75.4

Request the reported growth associated with Cc1cc(C)c(S(=O)(=O)N2CCN(c3cc4c(cc3F)c(=O)c(C(=O)O)cn4C3CC3)CC2)c(C)c1
13.9

Quick one: growth of CC/C=C\C[C@H]1C/C=C2/C(=O)C(Cl)=C[C@@H]2C/C=C\CCCC(=O)O1 ?
-1.11

Item under review: COc1ccc2c(c1)NC(=O)CN2c1nc(C)nc2ccccc12 . Reported growth?
24.7

Data origin: PubChem BioAssay (NCI)
